Where do these numbers come from? They come from patent EP4725941A1.

Target: MEK1 (Homo sapiens)
Construct: purchased Thermo Fisher Scientific Inc. (MEK1, CRAF); Carna Biosciences, Inc. (ERK2)
Sequence (Q02750 whole entry): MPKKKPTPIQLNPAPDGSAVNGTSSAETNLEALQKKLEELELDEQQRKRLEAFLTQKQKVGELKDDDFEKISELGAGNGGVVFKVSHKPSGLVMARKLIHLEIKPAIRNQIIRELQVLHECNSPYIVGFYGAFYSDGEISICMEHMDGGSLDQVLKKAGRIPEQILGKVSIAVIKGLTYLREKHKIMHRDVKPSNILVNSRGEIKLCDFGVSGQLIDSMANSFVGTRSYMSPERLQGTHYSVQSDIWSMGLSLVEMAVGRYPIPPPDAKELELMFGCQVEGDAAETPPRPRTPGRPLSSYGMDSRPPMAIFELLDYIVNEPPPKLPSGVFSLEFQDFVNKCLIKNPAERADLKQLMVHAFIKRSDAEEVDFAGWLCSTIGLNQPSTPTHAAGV
Assay: MEK1-inhibiting activity, fluorescent polarization method (CRAF/MEK1/ERK2 cascade, IMAP)
Format: biochemical
Settings: Table 3; read-out: MEK1 IC50
endpointLabel: IC50

> print(dat)
                                   compound       measuredtarget  obsvalue
1  CNS(=O)(=O)Nc1nccc(Cc2cc(C(=O)NOC(C)C)c(Nc3ccc(I)cc3F)c(F)c2F)c1F [Compound A-10]  MEK1 (Homo sapiens)      5 nM
2  CCCNS(=O)(=O)Nc1nccc(Cc2cc(C(N)=O)c(Nc3ccc(I)cc3F)c(F)c2F)c1F [Compound A-41]  MEK1 (Homo sapiens)     29 nM
3  CONC(=O)c1cc(Cc2ccnc(NS(=O)(=O)NC3(C)CCC3)c2F)c(F)c(F)c1Nc1ccc(C2CC2)cc1F [Compound G-6]  MEK1 (Homo sapiens)     32 nM
4  NC(=O)c1cc(Cc2cccc(NS(=O)(=O)CCCF)c2F)c(F)c(F)c1Nc1ccc(I)cc1F [Compound E-15]  MEK1 (Homo sapiens)    287 nM

----------
Reported IC50 values are given for each entry in this list.
Molecular target: BRAF (Homo sapiens)
Construct: purchased Eurofins Genomics KK; (BRAF); Thermo Fisher Scientific Inc. (MEK1)
Sequence (P15056 417-766 limits assumed): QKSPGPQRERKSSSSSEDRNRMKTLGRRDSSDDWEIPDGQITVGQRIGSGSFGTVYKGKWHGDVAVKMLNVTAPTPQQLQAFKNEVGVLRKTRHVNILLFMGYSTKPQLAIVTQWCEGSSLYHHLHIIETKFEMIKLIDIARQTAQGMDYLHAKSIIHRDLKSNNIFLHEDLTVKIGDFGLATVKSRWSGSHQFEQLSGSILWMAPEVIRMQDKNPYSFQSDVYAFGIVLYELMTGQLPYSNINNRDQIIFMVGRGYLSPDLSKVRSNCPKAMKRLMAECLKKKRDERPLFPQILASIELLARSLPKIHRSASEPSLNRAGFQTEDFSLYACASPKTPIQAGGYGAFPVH
Test: BRAF-inhibiting activity, time-resolved fluorescence-fluorescence resonance energy transfer assay
Format: biochemical
Conditions: read-out: BRAF IC50; Table 3
endpointLabel: IC50 (nM)

> print(dat)
                                   compound  readingunit  obsvalue
1  CONC(=O)c1cc(Cc2cccc(NS(N)(=O)=O)c2F)c(F)c(F)c1Nc1ccc(I)cc1F [Compound D-12]           nM        14
2  CC(C)NS(=O)(=O)Nc1nccc(Cc2cc(C(N)=O)c(Nc3ccc(I)cc3F)c(F)c2F)c1F [Compound A-31]           nM         6
3  COCCNS(=O)(=O)Nc1nccc(Cc2cc(C(N)=O)c(Nc3ccc(I)cc3F)n(C)c2=O)c1F [Compound J-2]           nM        11
4  NS(=O)(=O)Nc1cccc(Cc2cc(C(=O)NC3CC3)c(Nc3ccc(I)cc3F)c(F)c2F)c1F [Compound D-7]           nM         4
5  NC(=O)c1cc(Cc2cccc(NS(=O)(=O)CC3CC3)c2F)c(F)c(F)c1Nc1ccc(I)cc1F [Compound E-14]           nM        17
6  CCS(=O)(=O)Nc1cccc(Cc2cc(C(N)=O)c(Nc3ccc(I)cc3F)c(F)c2F)c1F [Compound D-4]           nM         3
7  CNS(=O)(=O)Nc1nccc(Cc2cc(C(=O)NOC)c(Nc3ccc(Cl)cc3F)c(F)c2F)c1F [Compound G-4]           nM         4

----------
Recorded log10 of microsomal CLint at 0.99 µM, one value per entry.
Assay: Human liver microsome stability
Assay type: in vitro ADME
Conditions: human liver microsomes, pH 7.4
endpointLabel: log10 of microsomal CLint at 0.99 µM (log10 of the value in µL/min/mg)

> print(dat)
                                    molecule  obsvalue
 1  CCS(=O)(=O)Nc1nccc(Cc2cc(C(=O)NOC)c(Nc3ccc(I)cc3F)c(F)c2F)c1F      1.00
 2  CCNS(=O)(=O)Nc1nccc(Cc2cc(C(N)=O)c(Nc3ccc(I)cc3F)c(F)c2F)c1F      0.30
 3  COCCNS(=O)(=O)Nc1nccc(Cc2cc(C(=O)NOC(C)C)c(Nc3ccc(I)cc3F)c(F)c2F)c1F      2.11
 4  CC1(NS(=O)(=O)Nc2nccc(Cc3cc(C(=O)NC4CC4)c(Nc4ccc(C5CC5)cc4F)c(F)c3F)c2F)CCC1      1.93
 5  CNS(C)(=O)=Nc1nccc(Cc2cc(C(N)=O)c(Nc3ccc(I)cc3F)c(F)c2F)c1F (stereo not drawn)      1.57
 6  COCC(C)(C)NS(=O)(=O)Nc1nccc(Cc2cc(C(N)=O)c(Nc3ccc(I)cc3F)c(F)c2F)c1F      1.68
 7  CNS(=O)(=O)Nc1cccc(Cc2cc(C(N)=O)c(Nc3ccc(I)cc3F)c(F)c2F)c1F      0.70
 8  CNS(=O)(=O)Nc1nccc(Cc2cc(C(N)=O)c(Nc3ccc(I)cc3F)n3cncc23)c1F      1.77
 9  NC(=O)c1cc(Cc2cccc(NS(=O)(=O)CC3CC3)c2F)c(F)c(F)c1Nc1ccc(I)cc1F      1.34
10  CONC(=O)c1cc(Cc2ccnc(NS(C)(=O)=O)c2F)c(F)c(F)c1Nc1ccc(I)cc1F      1.11
11  CNS(=O)(=O)Nc1nccc(Cn2cc(C(N)=O)c(Nc3ccc(SC)cc3F)c(F)c2=O)c1F      1.28
12  CNS(=O)(=O)Nc1nccc(Cc2cc(C(=O)NC3CC3)c(Nc3ccc(I)cc3F)n(C)c2=O)c1F      1.30
13  CNS(=O)(=O)Nc1nccc(Cc2cc(C(=O)N[C@H]3C[C@H]3C)c(Nc3ccc(I)cc3F)c(F)c2F)c1F (racemic)      1.45
14  CNS(=O)(=O)Nc1nccc(Cc2cc(C(N)=O)c(Nc3ccc(I)cc3F)c(F)c2F)c1F      0.85

----------
# IC50 per entry
Target: BRAF (Homo sapiens)
Construct: purchased Eurofins Genomics KK; (BRAF); Thermo Fisher Scientific Inc. (MEK1)
Test: BRAF-inhibiting activity, time-resolved fluorescence-fluorescence resonance energy transfer assay
Format: biochemical
Details: Table 1; read-out: BRAF IC50
endpointLabel: IC50 (nM)

> print(dat)
                                   molecule       measuredtarget  endpointlabel  obsvalue
1  CNS(=O)(=O)NCC(=O)N(Cc1cc(C(=O)NOCCO)c(Nc2ccc(I)cc2F)c(F)c1F)OC [AA-1]  BRAF (Homo sapiens)           IC50         3
2  CNS(=O)(=O)Nc1cccc(Cc2c(CC(=O)NOCCO)c3ccc(Oc4ncccn4)cc3oc2=O)c1F [AA-2]  BRAF (Homo sapiens)           IC50      2200

----------
System: Calu-6
Test: Cell proliferation-inhibiting activity (ATP in viable cells, CellTiter-Glo), Calu-6
Type: cell-based, human
Conditions: human lung cancer cells, 4 days; read-out: Calu-6 IC50
endpointLabel: IC50 (nM)

> print(dat)
                             moleculesmiles  obsvalue
1  CS(=O)(=O)Nc1cccc(Cc2cc(C(N)=O)c(Nc3ccc(I)cc3F)c(F)c2F)c1F        84
2  COCC1(S(=O)(=O)Nc2cccc(Cc3cc(C(=O)NOC)c(Nc4ccc(I)cc4F)c(F)c3F)c2F)CC1         7
3  CS(=O)(=O)Nc1cccc(Cc2cc(C(=O)NC3CC3)c(Nc3ccc(I)cc3F)c(F)c2F)c1F        28
4  CCS(=O)(=O)Nc1cccc(Cc2cc(C(=O)NOC(C)(C)C)c(Nc3ccc(I)cc3F)n(C)c2=O)c1F        34

----------
Target: BRAF (Homo sapiens)
Construct: purchased Eurofins Genomics KK; (BRAF); Thermo Fisher Scientific Inc. (MEK1)
Test: BRAF-inhibiting activity, time-resolved fluorescence-fluorescence resonance energy transfer assay
Format: biochemical
Conditions: read-out: BRAF IC50; Table 3
pIC50: −log10 of the molar value.
endpointLabel: pIC50

> print(dat)
                             moleculesmiles       measuredtarget  endpointlabel  obsvalue
1  Cn1c(Nc2ccc(I)cc2F)c(C(=O)NOC(C)(C)C)cc(Cc2cccc(NS(=O)(=O)C3(C)CC3)c2F)c1=O  BRAF (Homo sapiens)          pIC50      7.85
2  CNS(=O)(=O)Nc1cc(Cc2cc(C(N)=O)c(Nc3ccc(I)cc3F)c(F)c2F)ccn1  BRAF (Homo sapiens)          pIC50      8.52
3  CC1(NS(=O)(=O)Nc2cccc(Cc3cc(C(N)=O)c(Nc4ccc(I)cc4F)c(F)c3F)c2F)CCC1  BRAF (Homo sapiens)          pIC50      7.62
4  COCCNS(=O)(=O)Nc1cc(Cc2cc(C(N)=O)c(Nc3ccc(I)cc3F)c(F)c2F)ccn1  BRAF (Homo sapiens)          pIC50      8.70

----------
Documented pIC50 across a set of compounds
Biological target: MEK1 (Homo sapiens)
Construct: purchased Thermo Fisher Scientific Inc. (MEK1, CRAF); Carna Biosciences, Inc. (ERK2)
Assay: MEK1-inhibiting activity, fluorescent polarization method (CRAF/MEK1/ERK2 cascade, IMAP)
Type: biochemical
Conditions: Table 3; read-out: MEK1 IC50
pIC50: −log10 of the molar value.
endpointLabel: pIC50

> print(dat)
                             moleculesmiles       measuredtarget  endpointlabel  obsvalue
1  CC(C)NS(=O)(=O)Nc1nccc(Cc2cc(C(N)=O)c(Nc3ccc(I)cc3F)c(F)c2F)c1F  MEK1 (Homo sapiens)          pIC50      7.31
2  CCCNS(=O)(=O)Nc1nccc(Cc2cc(C(=O)NOCCO)c(Nc3ccc(I)cc3F)c(F)c2F)c1F  MEK1 (Homo sapiens)          pIC50      8.70
3  NS(=O)(=O)Nc1cccc(Cc2cc(C(=O)NC3CC3)c(Nc3ccc(I)cc3F)c(F)c2F)c1F  MEK1 (Homo sapiens)          pIC50      6.55
4  CNS(=O)(=O)Nc1nccc(Cc2cc(C(N)=O)c(Nc3ccc(SC(F)F)cc3F)c(F)c2F)c1F  MEK1 (Homo sapiens)          pIC50      8.15
5  CNS(=O)(=O)Nc1nccc(Cc2cc(C(=O)NOC(C)(C)C)c(Nc3ccc(I)cc3F)c(F)c2F)c1F  MEK1 (Homo sapiens)          pIC50      8.52
6  O=C(NC1CC1)c1cc(Cc2ccnc(NS(=O)(=O)NC3CC3)c2F)c(F)c(F)c1Nc1ccc(I)cc1Cl  MEK1 (Homo sapiens)          pIC50      7.21
7  CC1(NS(=O)(=O)Nc2cccc(Cc3cc(C(N)=O)c(Nc4ccc(I)cc4F)c(F)c3F)c2F)CCC1  MEK1 (Homo sapiens)          pIC50      6.60
